Cited source for all entries: patent US20180297966A1

# experiment.notes: pH of exemplary salts with respect to concentration (% w/v)
# Type: physicochemical
# condition: Conc. 2% w/v
Structures can show the parent of a compound that is named as a salt.
# pH annotations
parameter: pH

> print(dat)
                                   compound  parameter  measured
1  CC1=CC(=O)NS(=O)(=O)O1.CCCNC(C)C(=O)Nc1ccccc1C (stereo not drawn) [Prilocaine acesulfamate, Prilocaine Acesulfamate]         pH      5.16
2  CCCNC(C)C(=O)Nc1ccccc1C (stereo not drawn) [Prilocaine hydrochloride, reference compound]         pH      4.60
3  CC1=CC([O-])=NS(=O)(=O)O1.[K+] [Potassium acesulfamate, reference compound]         pH      5.98
4  CCCNC(C)C(=O)Nc1c(C)csc1C(=O)OC (stereo not drawn) [Articaine hydrochloride, reference compound]         pH      4.78
5  CC1=CC(=O)NS(=O)(=O)O1.Cc1cccc(C)c1NC(=O)C1CCCCN1C (stereo not drawn) [Mepivacaine acesulfamate]         pH      4.91
6  CCCCN1CCCCC1C(=O)Nc1c(C)cccc1C (stereo not drawn) [Bupivacaine hydrochloride, reference compound]         pH      5.22
7  CNC[C@H](O)c1ccc(O)c(O)c1 [Epinephrine hydrochloride, reference compound]         pH      4.84
8  Cc1cccc(C)c1NC(=O)C1CCCCN1C (stereo not drawn) [Mepivacaine hydrochloride, reference compound]         pH      4.53
9  CCN(CC)CC(=O)Nc1c(C)cccc1C [Lidocaine hydrochloride, reference compound]         pH      4.65

----------
# experiment.notes: pH of exemplary salts with respect to concentration (% w/v)
# Format: physicochemical
# condition: Conc. 5% w/v
Where a name gives a salt, the structure may show the parent alone.
parameter: pH

> print(dat)
                                   compound  measured
1  CCCNC(C)C(=O)Nc1c(C)csc1C(=O)OC (stereo not drawn) [Articaine hydrochloride, reference compound]      4.62
2  CC1=CC(=O)NS(=O)(=O)O1.CCCNC(C)C(=O)Nc1ccccc1C (stereo not drawn) [Prilocaine acesulfamate, Prilocaine Acesulfamate]      5.00
3  CNC[C@H](O)c1ccc(O)c(O)c1 [Epinephrine hydrochloride, reference compound]      3.91
4  CCCCN1CCCCC1C(=O)Nc1c(C)cccc1C (stereo not drawn) [Bupivacaine hydrochloride, reference compound]      4.81
5  CC1=CC([O-])=NS(=O)(=O)O1.[K+] [Potassium acesulfamate, reference compound]      6.33
6  CCCNC(C)C(=O)Nc1ccccc1C (stereo not drawn) [Prilocaine hydrochloride, reference compound]      3.42
7  Cc1cccc(C)c1NC(=O)C1CCCCN1C (stereo not drawn) [Mepivacaine hydrochloride, reference compound]      3.77
8  CC1=CC(=O)NS(=O)(=O)O1.Cc1cccc(C)c1NC(=O)C1CCCCN1C (stereo not drawn) [Mepivacaine acesulfamate]      4.87
9  CCN(CC)CC(=O)Nc1c(C)cccc1C [Lidocaine hydrochloride, reference compound]      4.53

----------
# experiment.notes: pH of exemplary salts with respect to concentration (% w/v)
# Assay type: physicochemical
# condition: Conc. 10% w/v
Counter-ions that a name gives are not always drawn.
parameter: pH

> print(dat)
                                   compound  parameter  measured
1  CCN(CC)CC(=O)Nc1c(C)cccc1C [Lidocaine hydrochloride, reference compound]         pH      3.94
2  CC1=CC([O-])=NS(=O)(=O)O1.[K+] [Potassium acesulfamate, reference compound]         pH      5.78
3  Cc1cccc(C)c1NC(=O)C1CCCCN1C (stereo not drawn) [Mepivacaine hydrochloride, reference compound]         pH      3.73
4  CC1=CC(=O)NS(=O)(=O)O1.CCCNC(C)C(=O)Nc1ccccc1C (stereo not drawn) [Prilocaine acesulfamate, Prilocaine Acesulfamate]         pH      4.71
5  CCCCN1CCCCC1C(=O)Nc1c(C)cccc1C (stereo not drawn) [Bupivacaine hydrochloride, reference compound]         pH      4.23
6  CC1=CC(=O)NS(=O)(=O)O1.Cc1cccc(C)c1NC(=O)C1CCCCN1C (stereo not drawn) [Mepivacaine acesulfamate]         pH      4.00
7  CCCNC(C)C(=O)Nc1c(C)csc1C(=O)OC (stereo not drawn) [Articaine hydrochloride, reference compound]         pH      4.22
8  CCCNC(C)C(=O)Nc1ccccc1C (stereo not drawn) [Prilocaine hydrochloride, reference compound]         pH      2.10
9  CNC[C@H](O)c1ccc(O)c(O)c1 [Epinephrine hydrochloride, reference compound]         pH      2.72
